Quick record of Ki values for D(1A) dopamine receptor (Rattus norvegicus).

Below: 3 compounds and their reported Ki.
CC(C)N1CCc2cccc3c2[C@H]1Cc1ccc(O)c(O)c1-3.Cl    > 10 µM
CC(C)CN1CCc2cccc3c2[C@H]1Cc1ccc(O)c(O)c1-3.Cl    > 10 µM
Oc1ccc2c(c1O)-c1cccc3c1[C@@H](C2)N(CC(F)(F)C(F)(F)F)CC3    > 50 µM

# next compound below
Record Cl.Oc1ccc2c(c1O)-c1cccc3c1[C@@H](C2)N(CC(F)(F)F)CC3 , field Ki: > 50 µM

Hey, just so you know, these numbers are from ChEMBL document CHEMBL1125067.
